# System: HepG2 cells
# ASSAY PROTOCOL: Cellular uptake / binding of FAM-labeled ligands to HepG2 cells (flow cytometry, proportion of FAM positive cells)
# Format: cell-based, human
# DETAILS: 1.6 nM ligand, 24 h, HepG2
# Protocol: The human hepatocellular carcinoma (HepG2) cell line was purchased from Shanghai Zhong Qiao Xin Zhou Biotechnology Co., Ltd. and maintained in minimum essential medium (Gibco, ThermoFisher Scientific, USA) with 10% fetal bovine serum (Gibco, ThermoFisher Scientific, USA), 200 units/mL penicillin plus 200 units/mL streptomycin at 37° C. with 5% CO2. Cells were seeded in 24-well plates with a density of 1.5×10^5 cells per well and incubated under 37° C., 5% CO2. […]
ATTRIBUTE MEASURED: Efficiency (%) of cellular uptake (percentage of ligand-bound HepG2 cells)
Give the quantity in %, number only.

Specify measured Efficiency (%) of cellular uptake (percentage of ligand-bound HepG2 cells) for 5-FAM-CPMB-0025: CPS-002 cyclic peptide scaffold, Gal-5 GalNAc linker, 5-FAM label; FIG. 14H (KEKGKG; D-residues; cyclised or stapled) . 1.6

Item 5-FAM-CPMB-0313: CPS-031 cyclic peptide scaffold, Gal-3 GalNAc linker, 5-FAM label; FIG. 14N (KEKAKA; cyclised or stapled) : provide Efficiency (%) of cellular uptake (percentage of ligand-bound HepG2 cells) 3.0

For the substance 5-FAM-CPMB-0034: CPS-003 cyclic peptide scaffold, Gal-4 GalNAc linker, 5-FAM label; FIG. 14K (KEKGKG; D-residues; cyclised or stapled) , report Efficiency (%) of cellular uptake (percentage of ligand-bound HepG2 cells). 2.0

Please report the measured Efficiency (%) of cellular uptake (percentage of ligand-bound HepG2 cells) for 5-FAM-CPMB-0012: CPS-001 cyclic peptide scaffold, Gal-2 GalNAc linker, 5-FAM label; FIG. 14B (KEKGKG; not fully specified; cyclised or stapled) 1.2

Tell us which Efficiency (%) of cellular uptake (percentage of ligand-bound HepG2 cells) value is on record for 5-FAM-CPMB-0311: CPS-031 cyclic peptide scaffold, Gal-1 GalNAc linker, 5-FAM label; FIG. 14M (KEKAKA; cyclised or stapled) 3.1
